Target: F508delCFTR (Homo sapiens, UniProt P13569, DEL508-508)
Construct: expressed in transfected cells; host or cells: CFBE41o- (human lung derived epithelial cell line), doxycycline-inducible
Sequence (P13569 with tags, fused parts or gaps DEL508-508): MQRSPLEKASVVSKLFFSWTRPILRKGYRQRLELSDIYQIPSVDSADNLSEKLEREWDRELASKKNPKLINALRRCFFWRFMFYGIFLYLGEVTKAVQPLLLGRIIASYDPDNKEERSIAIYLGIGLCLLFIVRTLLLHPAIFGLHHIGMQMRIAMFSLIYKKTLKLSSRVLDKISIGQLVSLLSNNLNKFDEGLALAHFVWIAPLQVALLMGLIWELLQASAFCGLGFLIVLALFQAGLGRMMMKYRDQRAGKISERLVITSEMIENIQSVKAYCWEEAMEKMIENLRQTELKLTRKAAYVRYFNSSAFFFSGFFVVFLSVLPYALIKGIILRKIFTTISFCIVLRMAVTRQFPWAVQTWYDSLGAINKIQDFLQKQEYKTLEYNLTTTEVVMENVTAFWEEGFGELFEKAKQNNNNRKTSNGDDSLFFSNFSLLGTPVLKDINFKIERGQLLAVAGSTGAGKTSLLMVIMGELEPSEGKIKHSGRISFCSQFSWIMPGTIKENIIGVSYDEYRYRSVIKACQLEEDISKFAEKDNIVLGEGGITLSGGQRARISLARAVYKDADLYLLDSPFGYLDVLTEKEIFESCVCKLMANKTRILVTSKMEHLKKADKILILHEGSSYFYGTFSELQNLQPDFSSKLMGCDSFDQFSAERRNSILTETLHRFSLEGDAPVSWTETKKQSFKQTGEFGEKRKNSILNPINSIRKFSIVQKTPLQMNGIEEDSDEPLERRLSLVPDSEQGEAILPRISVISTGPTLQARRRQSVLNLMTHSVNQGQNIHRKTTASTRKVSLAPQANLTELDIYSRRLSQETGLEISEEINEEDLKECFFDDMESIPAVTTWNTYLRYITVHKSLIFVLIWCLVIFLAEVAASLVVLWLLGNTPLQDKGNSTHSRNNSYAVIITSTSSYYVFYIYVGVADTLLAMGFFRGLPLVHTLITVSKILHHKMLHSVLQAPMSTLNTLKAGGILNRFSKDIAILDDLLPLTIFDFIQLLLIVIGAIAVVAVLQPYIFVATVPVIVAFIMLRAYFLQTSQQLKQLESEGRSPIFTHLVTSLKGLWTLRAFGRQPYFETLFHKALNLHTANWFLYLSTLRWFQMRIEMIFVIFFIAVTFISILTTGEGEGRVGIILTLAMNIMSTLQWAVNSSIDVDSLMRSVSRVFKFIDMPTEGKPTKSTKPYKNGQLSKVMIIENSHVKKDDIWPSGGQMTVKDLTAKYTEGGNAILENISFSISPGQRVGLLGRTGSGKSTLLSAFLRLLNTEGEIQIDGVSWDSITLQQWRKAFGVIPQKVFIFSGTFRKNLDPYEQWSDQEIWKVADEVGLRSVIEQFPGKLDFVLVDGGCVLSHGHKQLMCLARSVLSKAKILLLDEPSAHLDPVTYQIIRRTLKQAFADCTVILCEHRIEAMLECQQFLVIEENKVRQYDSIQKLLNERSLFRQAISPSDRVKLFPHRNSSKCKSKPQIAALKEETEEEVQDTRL
Test: Cell Surface Expression-Horse Radish Peroxidase (CSE-HRP) assay
Type: cell-based
Settings: CFBE41o-F508delCFTR-HRP cells; maximum at any tested concentration, normalized to on-plate positive control (3 μM)
Method: Cell Surface Expression-Horse Radish Peroxidase (CSE-HRP) Assay: A cellular assay for measuring the F508delCFTR cell surface expression after correction with test compounds was developed in human lung derived epithelial cell line (CFBE41o-) (Veit G et al, (2012) Mol Biol Cell. 23(21): 4188-4202). […] The raw counts from the experiment are analyzed using Accelrys® Assay Explorer v3.3. […]
MEASURED_QUANTITY: Maximum % activity (%)

Example cases with answers are listed next.
COc1ccc2c(c1)O[C@@H](c1ccc(C(=O)O)cc1)C[C@H]2NC(=O)C(C)(C)c1ccc(OC(F)(F)F)cc1 [Example 109] :: 93.0
CCOC(=O)[C@H]1CC[C@H]([C@H]2C[C@@H](NC(=O)C3(c4ccc5c(c4)OC(F)(F)O5)CC3)c3ccc(OC)cc3O2)CC1 [Example 10] :: 119.0
COc1ccc2c(c1)O[C@@H](c1cccc(C(=O)O)c1)C[C@H]2NC(=O)C1(C)CCc2ccc(OC(F)(F)F)cc21 (stereo partly shown) [Example 58] :: 20.4
COc1ccc2c(c1)CC[C@]2(C)C(=O)N[C@@H]1C[C@H](c2ccc(C(=O)O)cc2)Oc2cc(OC)ccc21 [Example 69] :: 66.1
COc1ccc2c(c1)CC[C@@]2(C)C(=O)N[C@@H]1C[C@H](c2ccc(C(=O)O)cc2)Oc2cc(OC)ccc21 [Example 100] :: 55.3

1. COc1ccc2c(c1)O[C@@H](c1ccc(C(=O)O)cc1)C[C@H]2NC(=O)C1(c2ccccc2)CC(F)(F)C1 [Example 72]
2. COc1ccc2c(c1)O[C@@H](c1ccc(C(=O)O)cc1)C[C@H]2NC(=O)C1(c2ccccc2)CCC1 [Example 102]
Req: Looking only at measured Maximum % activity, which entry is lower, 1 or 2 ? Lab note: record the label of whichever item you select.
Resp: 1

----------
Target: F508delCFTR (Homo sapiens, UniProt P13569, DEL508-508)
Construct: expressed in transfected cells; host or cells: CFBE41o- (human lung derived epithelial cell line), doxycycline-inducible
Assay: Cell Surface Expression-Horse Radish Peroxidase (CSE-HRP) assay
Type: cell-based
Conditions: CFBE41o-F508delCFTR-HRP cells; maximum at any tested concentration, normalized to on-plate positive control (3 μM)
MEASURED_QUANTITY: Maximum % activity (%)

Example cases with answers are listed next.
COc1ccc2c(c1)O[C@@H](c1cccc(C(=O)O)c1)C[C@H]2NC(=O)C1(c2ccc(Cl)cc2)CC1 [Example 42] :: 28.3
COc1ccc2c(c1)CC[C@@]2(C)C(=O)N[C@@H]1C[C@H](c2cccc(C(=O)O)c2)Oc2ccccc21 [Example 32] :: 20.4
COc1ccc2c(c1)OC(c1ccc(OC)c(OC)c1)CC2NC(=O)C1(c2ccc(F)cc2)CC1 (stereo not shown) [Example 20] :: 51.1

I. COc1ccc2c(c1)O[C@@H](c1ccc(C(=O)O)cc1)C[C@H]2NC(=O)C1(c2ccc(OC)c(OC)c2)CCC1 [Example 116]
II. COC(=O)c1cccc([C@H]2C[C@@H](NC(=O)C3(C)CCc4cc(C)ccc43)c3ccc(OC)cc3O2)c1 (mixture of isomers) [Example 123]
Req: Looking only at measured Maximum % activity, which entry is lower, I or II ? Lab note: record the label of whichever item you select.
Resp: I
(I: 27.6%, II: 80.8%)

I. COc1ccc2c(c1)O[C@@H](c1cccc(C(=O)O)c1)C[C@H]2NC(=O)C1(C)CCc2cc(Cl)ccc21 (stereo partly shown) [Example 36]
II. COc1ccc2c(c1)O[C@@H](c1cccc(C(=O)O)c1)C[C@H]2NC(=O)[C@@]1(C)CCc2cc(C)ccc21 (single isomer, unassigned) [Example 8]
Req: Among I and II , which shows a numerically higher Maximum % activity result? Lab note: record the label of whichever item you select.
Resp: II
(II: 91.3%, I: 31.4%)

----------
Molecular target: F508delCFTR (Homo sapiens, UniProt P13569, DEL508-508)
Construct: expressed in transfected cells; host or cells: CFBE41o- (human lung derived epithelial cell line), doxycycline-inducible
Assay: Cell Surface Expression-Horse Radish Peroxidase (CSE-HRP) assay
Assay type: cell-based
Conditions: CFBE41o-F508delCFTR-HRP cells; maximum at any tested concentration, normalized to on-plate positive control (3 μM)
MEASURED_QUANTITY: Maximum % activity (%)

COc1ccc2c(c1)O[C@@H](c1ccc(C(=O)O)cc1)C[C@H]2NC(=O)C1(c2ccccc2)CC1(F)F (mixture of isomers) :: 32.0
COc1ccc2c(c1)O[C@@H](c1ccc(C(=O)O)cc1)C[C@H]2NC(=O)[C@]1(C)CCc2cc(C)ccc21 (single isomer, unassigned) :: 72.1
COC(=O)[C@H]1CC[C@@H]([C@H]2C[C@@H](NC(=O)C3(c4ccc5c(c4)OC(F)(F)O5)CC3)c3ccc(OC(F)F)cc3O2)CC1 (single isomer, unassigned) [Example 14D] :: 121.5

1. COc1ccc2c(c1)O[C@@H](c1cccc(C(=O)O)c1)C[C@H]2NC(=O)C1(C)CCc2cc(C)ccc21 (stereo partly drawn)
2. COc1ccc(C(C)(C)C(=O)N[C@H]2C[C@H](c3cccc(C(=O)O)c3)Oc3cc(OC)ccc32)cc1
3. COc1ccc(C2(C(=O)N[C@@H]3C[C@H](c4ccc(C(=O)O)cc4)Oc4cc(OC)ccc43)CCCC2)cc1
Req: Put these in order: smallest Maximum % activity first, largest last. Output spec: labels arranged per the requested ranking.
Resp: 3, 2, 1
(3: 2.2%, 2: 38.3%, 1: 86.2%)

----------
Biological target: F508delCFTR (Homo sapiens, UniProt P13569, DEL508-508)
Construct: expressed in transfected cells; host or cells: CFBE41o- (human lung derived epithelial cell line), doxycycline-inducible
Assay: Cell Surface Expression-Horse Radish Peroxidase (CSE-HRP) assay
Assay type: cell-based
Conditions: CFBE41o-F508delCFTR-HRP cells; maximum at any tested concentration, normalized to on-plate positive control (3 μM)
MEASURED_QUANTITY: Maximum % activity (%)

COc1ccc2c(c1)O[C@@H](c1ccc(C(=O)O)cc1)C[C@H]2NC(=O)C(C)(C)c1ccc2c(c1)OCO2 :: 73.9

I. COc1ccc2c(c1)OC(c1ccc(OC)c(OC)c1)CC2NC(=O)C1(c2ccccc2)CC(F)(F)C1 (centres unmarked)
II. C[C@@]1(C(=O)N[C@@H]2C[C@H](c3ccc(C(=O)O)cc3)Oc3ccccc32)CCc2cc(Cl)ccc2O1
III. COc1ccc2c(c1)O[C@@H](c1ccc(C(=O)O)cc1)C[C@H]2NC(=O)C1(C)CCc2cc(OC(F)(F)F)ccc21 (some centres unmarked)
IV. COc1ccc2c(c1)O[C@@H](c1ccc(C(=O)O)cc1)C[C@H]2NC(=O)C(C)(C)c1ccc(F)cc1
Req: Rank descending by Maximum % activity. Output spec: labels arranged per the requested ranking.
Resp: III, IV, II, I

A. COc1ccc2c(c1)O[C@@H](c1ccc(C(=O)O)cc1)C[C@H]2NC(=O)C(C)(C)Oc1ccc(C#N)cc1
B. COc1ccc2c(c1)O[C@@H](c1cccc(C(=O)O)c1)C[C@H]2NC(=O)C(C)(C)c1ccc(OC(F)(F)F)cc1
C. CCOC(=O)[C@H]1CC[C@H]([C@H]2C[C@@H](NC(=O)C3(c4ccc5c(c4)OC(F)(F)O5)CC3)c3ccc(OC(F)(F)F)cc3O2)CC1
Req: Put these in order: smallest Maximum % activity first, largest last. Output spec: labels arranged per the requested ranking.
Resp: A, B, C
(A: 22.4%, B: 81.0%, C: 135.0%)

----------
Biological target: F508delCFTR (Homo sapiens, UniProt P13569, DEL508-508)
Experiment: Cell Surface Expression-Horse Radish Peroxidase (CSE-HRP) assay
Conditions: CFBE41o-F508delCFTR-HRP cells; F508delCFTR cell surface expression, luminescence; 18-24 hours at 33° C.; highest concentration 20 μM
Method: Cell Surface Expression-Horse Radish Peroxidase (CSE-HRP) Assay: A cellular assay for measuring the F508delCFTR cell surface expression after correction with test compounds was developed in human lung derived epithelial cell line (CFBE41o-) (Veit G et al, (2012) Mol Biol Cell. 23(21): 4188-4202). […] The raw counts from the experiment are analyzed using Accelrys® Assay Explorer v3.3. […]
MEASURED_QUANTITY: EC50 (nM)

COc1ccc2c(c1)O[C@@H](c1ccc(C(=O)O)cc1)C[C@H]2NC(=O)C1(c2ccc(C#N)cc2)CC1 :: 350

A. O=C(N[C@@H]1C[C@H]([C@H]2CC[C@H](C(=O)O)CC2)Oc2cc(OC(F)(F)F)ccc21)C1(c2ccc3c(c2)OC(F)(F)O3)CC1
B. COc1ccc2c(c1)CC[C@@]2(C)C(=O)N[C@@H]1C[C@H](c2ccc(C(=O)O)cc2)Oc2cc(OC)ccc21
Req: Looking only at measured EC50, which entry is lower, A or B ? Lab note: record the label of whichever item you select.
Resp: A
(A: 30 nM, B: 480 nM)
